FYI, the data here is from ChEMBL document CHEMBL1201862.

System: SNB-19
Assay: NCI tumour cell line growth inhibition, 48 h
Active and inactive are the calls of the source. No stated cut-off is given here; in the data, active = GI50 up to about 1.1 µM and inactive = higher.
Classes used: active, inactive

compound	target entity	answer label
N#CCCC1C(C#N)C2(Cl)CC1(Cl)C(Cl)=C2Cl (centres undefined)	SNB-19	inactive
COC(=O)/C=C1/OC(c2ccc(C)cc2C)=CC1=O	SNB-19	inactive
CCOc1ccc(C(C)c2cc3c(cc2OC)OCO3)cc1 (centres undefined)	SNB-19	active
CN(C)Cc1nsc(N(C)C)n1	SNB-19	inactive

----------
System: M19-MEL
Experiment: NCI tumour cell line growth inhibition, 48 h
The source made the active and inactive calls. Rule as the data show it: active = GI50 up to about 1.1 µM and inactive = higher.

compound	target entity	GI50
[O-]/[N+](=C\c1ccccc1)[C@H](COCc1ccccc1)c1ccccc1	M19-MEL	> 100 µM (inactive)
CNC(C)(C)Cc1ccc(Cl)cc1	M19-MEL	> 100 µM (inactive)
CC(=O)OC1COC(n2c(=S)n(-c3ccc(C)cc3)c(=O)c3ccccc32)C(OC(C)=O)C1OC(C)=O (configuration not stated)	M19-MEL	> 100 µM (inactive)
Cn1nnc2c(C(N)=O)ncn2c1=O [TEMOZOLOMIDE]	M19-MEL	> 100 µM (inactive)
CCC1CCCCN1CC(C(C)=O)C(c1ccccc1)c1c(O)c2ccccc2oc1=O (configuration not stated)	M19-MEL	> 100 µM (inactive)
COc1cc(C(C)c2cc3c(cc2OCCNC(=O)COc2cc4c(cc2C(C)c2cc(OC)c(OC)c(OC)c2)OCO4)OCO3)cc(OC)c1OC (configuration not stated)	M19-MEL	80.2 µM (inactive)
O=C(/C=C/c1ccc(Br)cc1)c1ccc(NCc2nc3ccccc3[nH]2)cc1	M19-MEL	6.56 µM (inactive)
CC(=O)OCCOCNC(=S)N/N=C/c1cc(Br)cs1	M19-MEL	> 100 µM (inactive)
CC1(C)CCc2cc3c(-c4ccccc4)cc(=O)oc3cc2O1	M19-MEL	> 100 µM (inactive)
N#CC(/C(CCCC(=O)Nc1cccc([N+](=O)[O-])c1)=N\NC(=O)c1c(O)ccc2ccccc12)c1nc2ccccc2s1 (configuration not stated)	M19-MEL	16.4 µM (inactive)
C1CCOC2(CCC3(CC2)OCCCCO3)OC1	M19-MEL	> 100 µM (inactive)
Cc1[nH]c2ccccc2c1C1Cc2ccccc2N1C(=O)/C(Cl)=C/c1ccccc1 (configuration not stated)	M19-MEL	> 100 µM (inactive)
O=[N+]([O-])c1ccc(C2N3CCCCC3[C@@H]3c4[nH]c5ccccc5c4CCN23)cc1 (some centres not stated)	M19-MEL	6.07 µM (inactive)
Cc1ccc(Nc2nc(C)c(C(/C=C/c3ccc4c(c3)OCO4)=N/Nc3ccc([N+](=O)[O-])cc3[N+](=O)[O-])s2)c([N+](=O)[O-])c1	M19-MEL	59.7 µM (inactive)
CC1OC(n2ccc3ccc([N+](=O)[O-])cc32)C(O)C(O)C1O (configuration not stated)	M19-MEL	> 100 µM (inactive)
CC(C)(C)c1cc(O)c2c(c1O)C(=O)CCC2	M19-MEL	30.5 µM (inactive)
CC(C)OC(=O)c1cccnc1/C=N/O	M19-MEL	> 100 µM (inactive)
CCCCCCCCCCCCC/C=C1\C[C@H](O)COC1=O	M19-MEL	18.4 µM (inactive)
CC1=NN2C(c3ccc(C)cc3)=CSC2=NC(C)(C)C1	M19-MEL	> 100 µM (inactive)
Cc1ccc(/N=N/c2c(C)nn(-c3ccccc3)c2-c2ccccc2)c(Br)c1	M19-MEL	55.1 µM (inactive)
CC(=O)NNc1nc(C)c(C(/C=C/c2ccc(Cl)cc2)=N/NC(=O)C[N+](C)(C)C)s1	M19-MEL	> 100 µM (inactive)
COc1nc(NC2OC(COC(C)=O)C(OC(C)=O)C(OC(C)=O)C2OC(C)=O)c(/N=C/C=N/c2c(NC3OC(COC(C)=O)C(OC(C)=O)C(OC(C)=O)C3OC(C)=O)nc(OC)n(C)c2=O)c(=O)n1C (configuration not stated)	M19-MEL	> 100 µM (inactive)
CC(=O)N(C)c1ccc2c(ccc[n+]2[O-])c1[N+](=O)[O-]	M19-MEL	> 100 µM (inactive)
Cc1cn(C2CC(N(C)C)C(CO)O2)c(=O)[nH]c1=O (configuration not stated)	M19-MEL	> 100 µM (inactive)
CN1CCN(CCCN2c3ccccc3Sc3ccc(C(F)(F)F)cc32)CC1	M19-MEL	1.87 µM (inactive)
NCc1c(C(N)=O)ncn1Cc1ccccc1	M19-MEL	> 100 µM (inactive)
Cc1[nH]c2ccccc2c1-c1n[nH]c(=O)c2ccccc12	M19-MEL	29 µM (inactive)
O=C(CCC(=O)Nc1cccc(C(F)(F)F)c1)CC(=O)c1ccc2ccccc2c1	M19-MEL	> 100 µM (inactive)
CN(C)CC1(C)CC/C(=C\c2ccc3c(c2)OCO3)C1=O (configuration not stated)	M19-MEL	> 100 µM (inactive)
Cc1ccccc1NC(=O)C(=O)Cc1nc2ccccc2s1	M19-MEL	> 100 µM (inactive)
COc1ccc(C2S/C(=C\c3cccc([N+](=O)[O-])c3)C(=O)N2NC(=O)Cc2ccccc2)cc1 (configuration not stated)	M19-MEL	> 100 µM (inactive)
N#C/C(=C1\SC(C(N)=O)=C(N)N1c1ccccc1)c1nc2ccccc2[nH]1	M19-MEL	> 100 µM (inactive)
